B1: Connector enhancer of kinase suppressor of ras 2, residues 9 to 71; numbered along this chain, Q8WXI2 (parent)
chain: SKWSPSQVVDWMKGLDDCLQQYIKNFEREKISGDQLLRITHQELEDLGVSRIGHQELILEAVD

- Variants of: B1
- EXPERIMENT: abundance fitness (aPCA) (normalised: wild type 0, dead -1); higher = more abundant; growth selection in yeast, the domain comes from the species named
- CONDITION SUMMARY: Homo sapiens
READOUT: abundance fitness

1) I52H -0.047
2) G53R 0.046
3) D46P -0.813
4) E43F -0.455
5) L59W -0.758
6) K30H -0.04
7) Q21H -0.257
8) V49F -0.866
9) L15R -0.535
10) Q42V -0.258
11) T40H -0.6
